target: hGLP-1R (Homo sapiens, UniProt P43220); assay: Functional cAMP activity in the presence of 1% HSA; format: cell-based; details: read-out: cAMP Rel EC50, hGLP-1R
Sequence (P43220 24-463): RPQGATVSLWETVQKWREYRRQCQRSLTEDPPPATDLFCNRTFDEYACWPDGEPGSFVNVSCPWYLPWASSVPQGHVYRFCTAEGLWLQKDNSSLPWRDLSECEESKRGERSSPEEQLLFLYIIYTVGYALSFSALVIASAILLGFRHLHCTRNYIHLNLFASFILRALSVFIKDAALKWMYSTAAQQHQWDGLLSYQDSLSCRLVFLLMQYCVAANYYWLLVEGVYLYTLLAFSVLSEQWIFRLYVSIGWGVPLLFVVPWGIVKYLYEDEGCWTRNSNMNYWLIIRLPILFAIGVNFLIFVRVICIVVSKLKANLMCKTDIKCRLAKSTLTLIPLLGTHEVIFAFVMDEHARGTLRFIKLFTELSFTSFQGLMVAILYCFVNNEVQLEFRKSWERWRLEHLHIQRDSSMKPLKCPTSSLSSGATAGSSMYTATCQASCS
Starred links: 1 amine or outer side, 2 acyl side, 3 side chain; linkers in the order of their positions; H or OH if unused. Non-standard residues stand in square brackets, D forms with d. Groups on a side chain read outwards from the residue. No end group written: not given here. *: point of attachment. C20 diacid = O=C(O)CCCCCCCCCCCCCCCCCCC(=O)*; C18 diacid = O=C(O)CCCCCCCCCCCCCCCCC(=O)*; αMePhe(2-F) = C[C@](N)(Cc1ccccc1F)C(=O)O; γGlu = O=C(O)[C@H](CCC(=O)[*:2])N[*:1]; αMe4Pal = C[C@](N)(Cc1ccncc1)C(=O)O; αMeY = C[C@](N)(Cc1ccc(O)cc1)C(=O)O; 4Pal = N[C@@H](Cc1ccncc1)C(=O)O; αMeL = CC(C)C[C@](C)(N)C(=O)O; αMeS = C[C@](N)(CO)C(=O)O; Orn = NCCC[C@H](N)C(=O)O; AEEA = NCCOCCOCC(=O)O; Aib = CC(C)(N)C(=O)O
The following ranges of EC50 define the classes used here: low band (below 200 nM), middle band (200 nM to below 400 nM), high band (400 nM or more)

Consider the worked cases shown below.
substance="H-Y[Aib]QGTFTSDFS[Orn][αMeL]LDKK([AEEA-γGlu-C18 diacid])AQ[Aib]QFIEYLLAGGPSSGAPPPEGS-NH2 [Example 96]" study_target="hGLP-1R (Homo sapiens, UniProt P43220)" classification="high band"
substance="H-Y[Aib]QGTFTSD[4Pal]SK[αMeL]LDKK([AEEA-γGlu-C18 diacid])AQ[Aib]AFIEYLIE[Aib]GPSSGAPPPSGSEE-NH2 [Example 902]" study_target="hGLP-1R (Homo sapiens, UniProt P43220)" classification="middle band"
substance="H-Y[Aib]QGTFTSDFS[Orn][αMeL]LDKK([AEEA-AEEA-γGlu-C18 diacid])AQ[Aib]AFIEYLLE[Aib]GPSSGAPPPSGT-NH2 [Example 165]" study_target="hGLP-1R (Homo sapiens, UniProt P43220)" classification="high band"
substance="H-Y[Aib]QGTFTSD[4Pal]SQ[αMeL]LD[Orn]K([γGlu-γGlu-C18 diacid])AQ[αMe4Pal]AFIE[αMeY]LIEGGPSSGEPPPSGSEE-NH2 [Example 1027]" study_target="hGLP-1R (Homo sapiens, UniProt P43220)" classification="middle band"
substance="H-Y[Aib]QGT[αMePhe(2-F)]TSD[4Pal][αMeS]I[αMeL]LD[Orn]K([γGlu-γGlu-C18 diacid])AQ[Aib][Orn]FI[dE]YLIEGGPSSGEPPPSGTEE-NH2 [Example 535]" study_target="hGLP-1R (Homo sapiens, UniProt P43220)" classification="low band"
substance="H-Y[Aib]QGTFTSD[4Pal]SK[αMeL]LDKK([AEEA-γGlu-C18 diacid])AQ[Aib]AFIEYLIE[Aib]GPSSGAPPPSGSEEE-NH2 [Example 903]" study_target="hGLP-1R (Homo sapiens, UniProt P43220)" classification="middle band"
substance="Y[Aib]QGTFTSD[4Pal]S[Orn][αMeL]LD[Orn]K([γGlu-γGlu-C18 diacid])AQ[αMe4Pal]QFIE[αMeY]LIEGGPSSGAPPPSGSEE-NH2 [Example 972]" study_target="hGLP-1R (Homo sapiens, UniProt P43220)" classification="middle band"
substance="H-Y[Aib]QGTFTSDFS[Orn][αMeL]LDKK([AEEA-γGlu-C20 diacid])AQ[Aib]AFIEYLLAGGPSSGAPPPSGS-NH2 [Example 76]" study_target="hGLP-1R (Homo sapiens, UniProt P43220)" classification="high band"
substance="H-Y[Aib]QGTFTSDFS[Orn][αMeL]LDKK([AEEA-γGlu-C20 diacid])AQ[Aib]AFIEYLLAGGTSSGEPPPSGE-NH2 [Example 106]" study_target="hGLP-1R (Homo sapiens, UniProt P43220)" classification="high band"
substance="Y[Aib]QGT[αMePhe(2-F)]TSD[4Pal][αMeS]I[αMeL]LD[Orn]K([AEEA-γGlu-C18 diacid])AQ[Aib][Orn]FI[dE]YLIEGGPSSGEPPPSEG-NH2 [Example 463]" study_target="hGLP-1R (Homo sapiens, UniProt P43220)" classification="low band"

Pending substance:
Ask: Hi, small favor: classify H-Y[Aib]QGT[αMePhe(2-F)]TSD[4Pal][αMeS]I[αMeL]LD[Orn]K([γGlu-γGlu-C18 diacid])AQ[Aib][Orn]FI[dE][αMeY]LAEGGPSSGEPPPSGTE-NH2 [Example 544] by its EC50 when you get a moment.
Result: low band
